Test system: Bacillus subtilis
Assay: cleaved RNA product abundance (RNA/gDNA barcode ratio) relative to median wild-type variant (ratio to wild type); higher = more accumulation of the downstream cleavage product
Conditions: experiment (reporter, strain, medium): exp 4a: truncated aprE reporter, strain BJT201 with 2% xylose (RNase J1 expressed); cleavage site: cggR-gapA (positions -7 to +36 mutated)
QUANTITY_NAME: cleaved RNA product abundance
Format: numeric value only, no unit, no commentary.

ACAGACGAAGGAGCCGCAAAGAAGTTATTAAGAGATGAATCATCCCTCAATATAAATATCTCTCACTTATTTAAA	0.139
ACAGACGAAGGAGCCGCAAAGTAGTTCTTAAGGGATGAATAATCCCTCAATATAAATATCTCTCACTTATTTAAA	0.195
ACAGACGAAGGAGCCGCAAAGAAGTTATTAAGGGACGAATAATACCTCAATATAAATATCTCTCACTTATTTAAA	0.12

Quick one: cleaved RNA product abundance of `ACAGACGAAGGAGCCGCAAAGAAGTTATTAAGCGATTAATAATCCCTCAACATAAATATCTCTCACTTATTTAAA` ?
0.0653

====

Test system: Bacillus subtilis
Assay: cleaved RNA product abundance (RNA/gDNA barcode ratio) relative to median wild-type variant (ratio to wild type); higher = more accumulation of the downstream cleavage product
Settings: experiment (reporter, strain, medium): exp 8a: truncated aprE reporter, strain BJT201 with 2% xylose (RNase J1 expressed); cleavage site: glnRA (positions -5 to +31 mutated)
I'd appreciate it if you could label each record using cleaved RNA product abundance and these ranges: class 1 (below 0.5), class 2 (0.5 to below 0.9), class 3 (0.9 or more)

CGACATGTCCCGCTTCTTTCATTAATCCGTTAGCAACTGTTTTGCTATATACATATACGTTTTAAGAGGAGGAAT	class 3
CGACATGTCCCGCTTCTTTCATTAATCCGTTAGCAACTGATTTGATATATACATTTACCTTTTAAGAGGAGGAAT	class 1
CGACATGTCCCGCTTCTTTCATTAATCCGTTAGCAACTCTTTTGCTATATACATTTACCTTTTAAGAGGAGGAAT	class 3
CGACATGTCCCGCTTCTTTCATTAATCCGTTAGCAACTGTTTAGCTATATACATTTACATTTTAAGAGGAGGAAT	class 2
CGACATGTCCCGCTTCTTTCATTAATCCGTTAGCACCTGTTTTGCAATATACATTTACCTTTTAAGAGGAGGAAT	class 1
CGACATGTCCCGCTTCTTTCATTATTCCGTTAGCAAGTGTTTTGCTATATACATTTACCTTTTAAGAGGAGGAAT	class 3

Band of `CGACATGTCCCGCTTCTTTCATTAATCAGTTAGCAACTGTTTTGCTATATACATTTAACTTTTAAGAGGAGGAAT` ?
class 3

Band of `CGACATGTCCCGCTTCTTTCATTAATTCGTTAGTAACTGTTTTGCTATATACATTTACCTTTTAAGAGGAGGAAT` ?
class 1

Band of `CGACATGTCCCGCTTCTTTCATTAATCCGTTAGCAACTTTTTCGCTATATACATTTACCTTTTAAGAGGAGGAAT` ?
class 2

Band of `CGACATGTCCCGCTTCTTTCATTATTCCTTTAGCAACTGTTTTGATATATACATTTACCTTTTAAGAGGAGGAAT` ?
class 1

Band of `CGACATGTCCCGCTTCTTTCATTAATCCGTTTGCAACTGTTTTGCTATATACATTTACATTTTAAGAGGAGGAAT` ?
class 2

====

Tested on: Bacillus subtilis
Test: cleaved RNA product abundance (RNA/gDNA barcode ratio) relative to median wild-type variant (ratio to wild type); higher = more accumulation of the downstream cleavage product
Settings: experiment (reporter, strain, medium): exp 2b: truncated aprE reporter, strain BJT200; cleavage site: cggR-gapA (positions -7 to +36 mutated)
Listing: cleaved RNA product abundance of selected sequences
Format: numeric value only, no unit, no commentary.

A selection of reference data follows.
ACAGACGAAGGAGCCGCAAAGAACTTATTAAGGGATGAATAATCCCTAAATATAAATATCTCTCACTTATTTAAA	0.258
ACAGACGAAGGAGCCGCAAAGAAGTTGTTAAGGCATGAATAATCCCTCAATATAAATATCTCTCACTTATTTAAA	0.103
ACAGACGAAGGAGCCGCAAAGAAGTTATGAAGGGATGAATAATCCCTCAATATAAATATCTCTCACTTATTTAAA	0.384
ACAGACGAAGGAGCCGCAAAGAAATTATTAAGGGATGAATAATCCGTCAATATAAATATCTCTCACTTATTTAAA	0.192
ACAGACGAAGGAGCCGCAATAAAGTTATTAAGGGATGAATAATCCCTCAATATAAATATCTCTCACTTATTTAAA	1.03

Quick one: cleaved RNA product abundance of `ACAGACGAAGGAGCCGCAAAGAAGTTATTAAGGGATGAATAATCCCCCAATATAAATATCTCTCACTTATTTAAA` ?
0.285

Quick one: cleaved RNA product abundance of `ACAGACGAAGGAGCCGCAAATAAGTTATTAAGGGATTAATAATCCCTCAATATAAATATCTCTCACTTATTTAAA` ?
0.863

====

Test system: Bacillus subtilis
Experiment: cleaved RNA product abundance (RNA/gDNA barcode ratio) relative to median wild-type variant (ratio to wild type); higher = more accumulation of the downstream cleavage product
Conditions: experiment (reporter, strain, medium): exp 2b: truncated aprE reporter, strain BJT200; cleavage site: cggR-gapA (positions -7 to +36 mutated)
Rule: cleaved RNA product abundance of 0.3 or more gives T; anything lower gives F.

Field: example entries. Status: answers known.
ACAGACGAAGGAGCCGCAAAGAAGTTATTAAGGGATGAATAATCCCTCAATATAAAGATCTCTCACTTATTTAAA	T
ACAGACGAAGGAGCCGCAAACAAATTATTAAGGGATGAATAATCCCTCAATATAAATATCTCTCACTTATTTAAA	T
ACAGACGAAGGAGCCGCAAAGAAGTTATTAAAGGATGAACAATCCCTCAATATAAATATCTCTCACTTATTTAAA	F

Answer whether cleaved RNA product abundance of `ACAGACGAAGGAGCCGCAAAGAAGTTATTAAGGGACGAATAAACCCTCAATATAAATATCTCTCACTTATTTAAA` is greater than or equal to 0.3.
F

Answer whether cleaved RNA product abundance of `ACAGACGAAGGAGCCGCAAAGAACTTATTAAGAGATGAATAATCCCTCAATATAAATATCTCTCACTTATTTAAA` is greater than or equal to 0.3.
F

Answer whether cleaved RNA product abundance of `ACAGACGAAGGAGCCGCAAAGAAGCTATAAAGGGATGAATAATCCCTCAATATAAATATCTCTCACTTATTTAAA` is greater than or equal to 0.3.
F

Answer whether cleaved RNA product abundance of `ACAGACGAAGGAGCCGCAAAGAAGTTATTAAGGGATTAATAATCCCTCATTATAAATATCTCTCACTTATTTAAA` is greater than or equal to 0.3.
F

Answer whether cleaved RNA product abundance of `ACAGACGAAGGAGCCGCAAATAAGTTATTAAGGGATGAATAACCCCTCAATATAAATATCTCTCACTTATTTAAA` is greater than or equal to 0.3.
T

Answer whether cleaved RNA product abundance of `ACAGACGAAGGAGCCGCAAAGAAGTTATTAAGGGATGAATAAACCCTCAATATAAATATCTCTCACTTATTTAAA` is greater than or equal to 0.3.
T

====

Listing: cleaved RNA product abundance of selected sequences
Tested on: Bacillus subtilis
Assay: cleaved RNA product abundance (RNA/gDNA barcode ratio) relative to median wild-type variant (ratio to wild type); higher = more accumulation of the downstream cleavage product
Details: experiment (reporter, strain, medium): exp 2b: truncated aprE reporter, strain BJT200; cleavage site: cggR-gapA (positions -7 to +36 mutated)
Format: numeric value only, no unit, no commentary.

ACAGACGAAGGAGCCGCAAAGAAGTGATTAAGGGATGAATAATCCCTCAACATAAATATCTCTCACTTATTTAAA	0.293
ACAGACGAAGGAGCCGCAAAAAAGTTATTAAGGGATGAATACTCCCTCAATATAAATATCTCTCACTTATTTAAA	0.519
ACAGACGAAGGAGCCGCAAAGAAGTTATTAAAGCATGAATAATCCCTCAATATAAATATCTCTCACTTATTTAAA	0.119
ACAGACGAAGGAGCCGCAAAGAAGTTATTAAGAGATGAATAAACCCTCAATATAAATATCTCTCACTTATTTAAA	0.148
ACAGACGAAGGAGCCGCAAAGAAGTAATTAAGGGATGAATAATCCATCAATATAAATATCTCTCACTTATTTAAA	0.148

Here is another sequence to look at.
Look up cleaved RNA product abundance with Bacillus subtilis for this sequence: `ACAGACGAAGGAGCCGCAAGGAAGTTATTAATGGATGAATAATCCCTCAATATAAATATCTCTCACTTATTTAAA`
0.144
